Each item that follows carries a reported TGI.
System: DU-145 prostate
test: NCI tumour cell line growth inhibition, 48 h
measure-name: TGI

{"compound": "CCCCCc1cc2cc3c(c(O)c2c(=O)[nH]1)C1(CCC3)C(O)=c2c(=O)c3c(=O)cc(OC)c(=O)c=3c(=O)c2=C1O (centres undefined)", "observed": "3.34 µM"}
{"compound": "CCOC(=O)c1cc(I)c(-c2cc(C)no2)n1C", "observed": "> 100 µM"}
{"compound": "CCOC(=O)C(CC(C)C)NC(=O)CSc1nnc(COc2ccc(Cl)cc2)n1-c1ccccc1 (centres undefined)", "observed": "32.4 µM"}
{"compound": "CNC(=S)N/N=C(\\C(=N/NC(=S)NC)c1ccccn1)c1ccccn1", "observed": "> 100 µM"}
{"compound": "O=C(O)c1cn(C2CC2)c2cc(N3CCN(C(=O)Nc4nc(-c5ccccc5)cs4)CC3)c(F)cc2c1=O", "observed": "15.8 µM"}
{"compound": "COc1ccc(/C=c2\\sc3n(c2=O)C2C(NN=3)N(C)C(=O)N2C)cc1 (centres undefined)", "observed": "> 100 µM"}
{"compound": "CCOC(=O)c1c(-c2ccc(Cl)cc2)c(C#N)c(=S)n(C2OC(COC(C)=O)C(OC(C)=O)C(OC(C)=O)C2OC(C)=O)c1-c1ccccc1 (centres undefined)", "observed": "> 100 µM"}
{"compound": "CC1(C)C(=O)c2ccccc2OC1N1CCN(C2Oc3ccccc3C(=O)C2(C)C)CC1 (centres undefined)", "observed": "> 100 µM"}
{"compound": "O=c1cc(NNc2cccc(F)c2)[nH]c(=O)[nH]1", "observed": "> 100 µM"}
